The compounds listed here are annotated with their IC50.
- Measured On: Angiotensin II receptor (AT-1) type-1 (Rattus norvegicus, UniProt P29089+P25095)
- Protocol Summary: In vitro inhibitory activity against rat Angiotensin II receptor, type 1 expressed in CHO cells
- Format: cell-based
Numbered stars: 1 amine (or outer) side, 2 acyl side, 3 side chain; on linkers, the order of the positions; unused ones are H or OH. Bridge positions count the residues as written; N and C are the ends. Square brackets hold non-standard residues; d marks the D form. Peptide text beside a SMILES is read from it. X2 = O=C([C@@H]1CC[C@@H]([*:3])N1[*:1])[*:2]; X1 = O=C([C@@H]1CC[C@H]([*:3])N1[*:1])[*:2]

Compound | IC50
NC(N)=NCCC[C@H](NC(=O)[C@@H](N)CC(=O)O)C(=O)N[C@H]1CS[C@H]2CC[C@@H](C(=O)N[C@@H](Cc3c[nH]cn3)C(=O)N3CCC[C@H]3C(=O)N[C@@H](Cc3ccccc3)C(=O)O)N2C(=O)[C@H](Cc2ccc(O)cc2)NC1=O (H-DRCY[X1]HPF-OH; thioether 3-5) | > 10 µM
CC(C)[C@H](NC(=O)[C@H](CCCN=C(N)N)NC(=O)[C@@H](N)CC(=O)O)C(=O)N[C@@H](Cc1ccc(O)cc1)C(=O)N[C@H]1CS[C@@H]2CC[C@@H](C(=O)N[C@@H](Cc3ccccc3)C(=O)O)N2C(=O)[C@H](Cc2c[nH]cn2)NC1=O (H-DRVYCH[X2]F-OH; thioether 5-7) | > 10 µM
NC(N)=NCCC[C@H](NC(=O)[C@@H](N)CC(=O)O)C(=O)N[C@H]1CS[C@@H]2CC[C@@H](C(=O)N[C@@H](Cc3c[nH]cn3)C(=O)N3CCC[C@H]3C(=O)N[C@@H](Cc3ccccc3)C(=O)O)N2C(=O)[C@H](Cc2ccc(O)cc2)NC1=O (H-DRCY[X2]HPF-OH; thioether 3-5) | > 10 µM

Source listed as ChEMBL document CHEMBL1132461.
